Assignment: determine reported pIC50 for the given compounds.
Tested on: HepG2 hepatocellular carcinoma
Assay: In vitro anti-proliferative activity, SRB assay, HepG2
Type: cell-based, human
Details: Homo sapiens, HepG2, 72 h, 72 h incubation, SRB; mean ± SE of three experiments; read-out: IC50 HepG2
Answers are plain numbers, as −log10 of the molar value.

1) NS(=O)(=O)c1ccc(NS(=O)(=O)c2ccc3oc(=O)ccc3c2)cc1 | 4.45
2) COc1cccc2c1C(=O)c1c(O)c3c(c(O)c1C2=O)C[C@@](O)(C(=O)CO)C[C@@H]3O[C@H]1C[C@H](N)[C@H](O)[C@H](C)O1 [Doxorubicin, reference compound] | 5.16
3) CC(=NNC1=NC(=O)C(CC(=O)O)S1)c1ccc(NS(=O)(=O)c2ccc3oc(=O)ccc3c2)cc1 (stereo not shown) [Compound 15c] | 5.12
4) O=c1ccc2cc(S(=O)(=O)Nc3ccc(S(=O)(=O)Nc4ccccn4)cc3)ccc2o1 | 5.09
5) CC(=O)c1ccc(NS(=O)(=O)c2ccc3oc(=O)ccc3c2)cc1 | 4.59

Switching to the query record.
So what's the measured pIC50 for this one? `CC(=NNc1c(Cl)cc(Cl)cc1Cl)c1ccc(NS(=O)(=O)c2ccc3oc(=O)ccc3c2)cc1` 4.53

Sourced from paper PMC6022226
